All values here come from patent US20260132197A1.

Target: T1, human CD47 on cells (SHP-77 tumor cells, human red blood cells, CCRF-CEM cells, human CD47 CHO-K1 stable cell … (human, UniProt Q08722 19-323))
T1 construct: whole, on cells; also called RBC
Test: flow cytometry on human RBCs;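 further: antibody binding measured by flow cytometry as geometric mean fluorescence intensity over a range of antibody concentrations, with EC50 and maximum taken from a sigmoidal dose-response fit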
Cut-off 20000 MFI on Fitted Maximal MFI: below means YES, at or above means NO.

* 108VH5.M27 / 108VL1.M5 (antibody, human IgG4 S228P, kappa, V domains shown, Full-length IgG4 (S228P), kappa; also called VH5.M27 VL1.M5) VH: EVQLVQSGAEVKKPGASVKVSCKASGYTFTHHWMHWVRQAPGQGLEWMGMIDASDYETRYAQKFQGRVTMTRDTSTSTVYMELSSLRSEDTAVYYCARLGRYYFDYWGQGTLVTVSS VL: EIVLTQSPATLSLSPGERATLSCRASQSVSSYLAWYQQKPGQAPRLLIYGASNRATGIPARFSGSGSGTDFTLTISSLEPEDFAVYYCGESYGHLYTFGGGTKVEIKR | NO
* 108VH5.M15 / 108VL1.M5 (antibody, human IgG4 S228P, kappa, V domains shown, Full-length IgG4 (S228P), kappa; also called VH5.M15 VL1.M5) VH: EVQLVQSGAEVKKPGASVKVSCKASGYTFTHHWIHWVRQAPGQGLEWMGMIDASDSSTRYAQKFQGRVTMTRDTSTSTVYMELSSLRSEDTAVYYCARLGRYYFDYWGQGTLVTVSS VL: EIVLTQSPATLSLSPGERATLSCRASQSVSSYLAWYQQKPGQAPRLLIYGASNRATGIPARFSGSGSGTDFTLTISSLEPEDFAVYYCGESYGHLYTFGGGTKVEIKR | YES
* 108VH10.Mo / 108VL10.Me (antibody, V domains shown, 4D5-framework series; also called VH10.Mo VL10.Me) VH: EVQLVESGGGLVQPGGSLRLSCAASGFTFSHHWIHWVRQAPGKGLEWVAMIDASDSETRLSDSFKGRFTISADTSKNTAYLQMNSLRAEDTAVYYCSRLGRYYFDYWGQGTLVTVSS VL: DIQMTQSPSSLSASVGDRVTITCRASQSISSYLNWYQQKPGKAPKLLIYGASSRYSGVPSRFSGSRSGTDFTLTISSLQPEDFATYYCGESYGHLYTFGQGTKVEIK | YES
* 108VH5.M25 / 108VL1.M5 (antibody, human IgG4 S228P, kappa, V domains shown, Full-length IgG4 (S228P), kappa; also called VH5.M25 VL1.M5) VH: EVQLVQSGAEVKKPGASVKVSCKASGYTFTHHWMHWVRQAPGQGLEWMGMIDASDRETRYAQKFQGRVTMTRDTSTSTVYMELSSLRSEDTAVYYCARLGRYYFDYWGQGTLVTVSS VL: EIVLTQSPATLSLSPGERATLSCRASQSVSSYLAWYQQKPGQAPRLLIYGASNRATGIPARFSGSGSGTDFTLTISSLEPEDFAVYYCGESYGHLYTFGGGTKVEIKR | NO
* 108VH10.Mk / 108VL10.Me (antibody, V domains shown, 4D5-framework series; also called VH10.Mk VL10.Me) VH: EVQLVESGGGLVQPGGSLRLSCAASGFTFSHHWIHWVRQAPGKGLEWVAMIDASDSETRLSQKVKDRFTISADTSKNTAYLQMNSLRAEDTAVYYCSRLGRYYFDYWGQGTLVTVSS VL: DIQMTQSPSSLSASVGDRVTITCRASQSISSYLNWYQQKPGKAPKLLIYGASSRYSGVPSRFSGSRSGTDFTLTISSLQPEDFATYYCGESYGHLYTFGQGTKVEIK | NO
* 108VH5.M6 / 108VL1.M5 (antibody, human IgG4 S228P, kappa, V domains shown, Full-length IgG4 (S228P), kappa; also called VH5.M6 VL1.M5) VH: EVQLVQSGAEVKKPGASVKVSCKASGYTFTHHYMHWVRQAPGQGLEWMGMIDASDSETRLSQKFKDRVTMTRDTSTSTVYMELSSLRSEDTAVYYCARLGRYYFDYWGQGTLVTVSS VL: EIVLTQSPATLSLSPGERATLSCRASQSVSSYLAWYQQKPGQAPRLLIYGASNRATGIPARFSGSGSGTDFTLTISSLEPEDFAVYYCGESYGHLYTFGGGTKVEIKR | YES
* 108VH10.Mr / 108VL10.Me (antibody, V domains shown, 4D5-framework series; constant regions not restated for this series; also called VH10.Mr VL10.Me) VH: EVQLVESGGGLVQPGGSLRLSCAASGFTFSHHWIHWVRQAPGKGLEWVAMIDASDSETRLVDSVKGRFTISADTSKNTAYLQMNSLRAEDTAVYYCSRLGRYYFDYWGQGTLVTVSS VL: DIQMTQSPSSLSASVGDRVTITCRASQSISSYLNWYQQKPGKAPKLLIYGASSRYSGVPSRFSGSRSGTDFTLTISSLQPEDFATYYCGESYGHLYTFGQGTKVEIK | YES
* 108VH5.M11 / 108VL1.M5 (antibody, human IgG4 S228P, kappa, V domains shown, Full-length IgG4 (S228P), kappa; also called VH5.M11 VL1.M5) VH: EVQLVQSGAEVKKPGASVKVSCKASGYTFTHHYIHWVRQAPGQGLEWMGMIDASDSETRYAQKFQGRVTMTRDTSTSTVYMELSSLRSEDTAVYYCARLGRYYFDYWGQGTLVTVSS VL: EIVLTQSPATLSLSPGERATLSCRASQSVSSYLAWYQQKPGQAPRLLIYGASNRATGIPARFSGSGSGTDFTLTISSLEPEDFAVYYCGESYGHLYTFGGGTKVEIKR | YES
* 108VH5.M16 / 108VL1.M5 (antibody, human IgG4 S228P, kappa, V domains shown, Full-length IgG4 (S228P), kappa; also called VH5.M16 VL1.M5) VH: EVQLVQSGAEVKKPGASVKVSCKASGYTFTHHWMHWVRQAPGQGLEWMGMIDASDGETRYAQKFQGRVTMTRDTSTSTVYMELSSLRSEDTAVYYCARLGRYYFDYWGQGTLVTVSS VL: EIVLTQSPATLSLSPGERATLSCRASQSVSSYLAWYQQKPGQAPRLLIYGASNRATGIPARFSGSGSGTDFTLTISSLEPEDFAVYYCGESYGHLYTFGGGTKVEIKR | NO
